# assayed target: DCN1 (DCUND1) protein PONY domain (Homo sapiens (Human), UniProt Q96GG9)
# Sequence (Q96GG9 60-248): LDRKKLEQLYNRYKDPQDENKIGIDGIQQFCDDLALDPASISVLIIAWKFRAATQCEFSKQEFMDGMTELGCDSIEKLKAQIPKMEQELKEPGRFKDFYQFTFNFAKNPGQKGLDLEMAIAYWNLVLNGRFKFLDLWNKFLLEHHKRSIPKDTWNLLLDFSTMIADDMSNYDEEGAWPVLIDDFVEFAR
# assay comment: TR-FRET assay, DCN1 binding with FAM-labeled probe
# condition description: 24 hr after treatment with compound; read-out: TR FRET IC50 24 hr
Each record here notes measured IC50.

Lookup result for CN1C(=O)[C@@H](NC(=O)c2cccc(C(F)(F)F)c2)[C@@H](C2CC2)c2c(C(=O)N3[C@H](C#N)C[C@H]4C[C@H]43)nn(C3CCOCC3)c21 (relative stereo) ; measured IC50: ≤ 200 nM

Lookup result for CCN1C(=O)[C@@H](NC(=O)c2cccc(C(F)(F)F)c2)[C@@H](c2ccc(F)cc2)c2c(C(=O)N(C)[C@H](C#N)CCN3CCOCC3)nn(-c3ccccc3)c21 ; measured IC50: ≤ 200 nM

Lookup result for CCN1C(=O)[C@@H](NC(=O)c2cccc(C(F)(F)F)c2)[C@@H](c2ccc(F)cc2)c2c(CNC(=O)/C=C/C(N)=O)nn(-c3ccccc3)c21 (racemic) ; measured IC50: 200 to 1000 nM

Lookup result for CCN1C(=O)[C@@H](NC(=O)c2cccc(C(F)(F)F)c2)[C@@H](c2ccc(F)cc2)c2c(C(=O)N(CC#N)C3CC3)nn(-c3ccccc3)c21 (stereo in doubt) ; measured IC50: ≤ 200 nM

Now look at this one.
Lookup result for CCN1C(=O)[C@@H](NC(=O)c2cccc(C(F)(F)F)c2)[C@@H](c2ccc(F)cc2)c2c(C3(NC#N)CC3)nn(-c3ccccc3)c21 (racemic) ; measured IC50: ≤ 200 nM

----------
Each record here notes measured IC50.
# Tested on: Cullin-3 (CUL3) neddylation
# assay comment: AlphaLISA assay for Cullin-3 (CUL3) neddylation in TF 1 cells
# Assay type: cell-based
# condition description: Homo sapiens, TF-1, 3 h, 3 hours treatment

Lookup result for C=C(CN1CC2CCC1CO2)C(=O)NCc1nn(-c2ccccc2)c2c1[C@H](c1ccc(F)cc1)[C@H](NC(=O)c1cccc(C(F)(F)F)c1)C(=O)N2CC (mixture of isomers) ; measured IC50: ≤ 100 nM

More entries:
Lookup result for CCN1C(=O)[C@@H](NC(=O)c2cccc(C(F)(F)F)c2)[C@@H](c2ccc(F)cc2)c2c(NC(=O)C3=CCCN(C)C3)nn(-c3ccccc3)c21 (racemic) ; measured IC50: ≤ 100 nM

Lookup result for CCN1C(=O)[C@@H](NC(=O)c2cccc(C(F)(F)F)c2)[C@@H](c2ccc(F)cc2)c2c(NC(=O)/C=C/C(=O)OC)nn(-c3ccccc3)c21 (racemic) ; measured IC50: ≤ 100 nM

----------
# assayed target: DCN1 (DCUND1) protein PONY domain (Homo sapiens (Human), UniProt Q96GG9)
# assay comment: TR-FRET assay, DCN1 binding with FAM-labeled probe
# condition description: 24 hr after treatment with compound; read-out: TR FRET IC50 24 hr
pIC50: −log10 of the molar value.
Each record here notes measured pIC50.

Lookup result for CCN1C(=O)[C@@H](NC(=O)c2cccc(C(F)(F)F)c2)[C@@H](c2ccc(F)cc2)c2c(C(=O)N3CC(F)(F)C[C@H]3C#N)nn(-c3ccccc3)c21 (racemic) ; measured pIC50: ≥ 6.70

Lookup result for CCN1C(=O)[C@H](NC(=O)c2cccc(C(F)(F)F)c2)[C@H](c2ccc(F)cc2)c2c(C(=O)N3CCOC[C@H]3C#N)nn(-c3ccccc3)c21 ; measured pIC50: 5.52 to 6.00

Lookup result for CCN1C(=O)[C@H](NC(=O)c2cccc(C(F)(F)F)c2)[C@H](c2ccc(F)cc2)c2c(C(=O)N3[C@H](C#N)C[C@H]4C[C@H]43)nn([C@@H]3CCOC3)c21 (single isomer, unassigned) [Compound I-704] ; measured pIC50: ≥ 6.70

Lookup result for CCN1C(=O)[C@@H](NC(=O)c2cccc(C(F)(F)F)c2)[C@@H](c2ccc(F)cc2)c2c(C#N)nn(-c3ccccc3)c21 (racemic) ; measured pIC50: < 5.52

Lookup result for CCN1C(=O)[C@@H](NC(=O)c2cccc(C(F)(F)F)c2)[C@@H](c2ccc(F)cc2)c2c(CN(C#N)CCCN3CCN(C4COC4)CC3)nn(-c3ccccc3)c21 ; measured pIC50: ≥ 6.70

More entries:
Lookup result for CCN1C(=O)[C@H](NC(=O)c2cccc(C(F)(F)F)c2)[C@H](c2ccc(F)cc2)c2c(C(=O)N3CCOCC3C#N)nn(-c3ccccc3)c21 (single isomer, unassigned) ; measured pIC50: ≥ 6.70

Lookup result for CCN1C(=O)[C@H](NC(=O)c2cccc(C(F)(F)F)c2)[C@H](C2CC2)c2c(C(=O)N(C)C(C)C#N)nn(C3CCOCC3)c21 (mixture of isomers) ; measured pIC50: 5.52 to 6.00

----------
# assayed target: DCN1 (DCUND1) protein PONY domain (Homo sapiens (Human), UniProt Q96GG9)
# assay comment: TR-FRET assay, DCN1 binding with FAM-labeled probe
# condition description: TR FRET IC50 1 hr (nM), 1 hr after treatment with compound
Each record here notes measured IC50.

A selection of reference data follows.
Lookup result for CCN1C(=O)[C@@H](NC(=O)c2cccc(C(F)(F)F)c2)[C@@H](C2CC2)c2c(C(=O)N(C)CC#N)nn(C3CCOCC3)c21 ; measured IC50: 200 to 1000 nM

Lookup result for CCN1C(=O)[C@H](NC(=O)c2cccc(C(F)(F)F)c2)[C@H](c2ccc(F)cc2)c2c(C(=O)N3CCC[C@H]3C#N)nn(-c3cccc(OCCN4CCN(C5COC5)CC4)c3)c21 ; measured IC50: 1000 to 3000 nM

Lookup result for CCN1C(=O)[C@H](NC(=O)c2cccc(C(F)(F)F)c2)[C@H](c2ccc(F)cc2)c2c(C(=O)N3CCC[C@H]3C#N)nn(-c3cccc(OCCN4CCC5(CC4)COC5)c3)c21 ; measured IC50: 1000 to 3000 nM

Lookup result for CCN1C(=O)[C@@H](NC(=O)c2cccc(C(F)(F)F)c2)[C@@H](C2CC2)c2c(C(=O)N3CC[C@@H](NC)[C@@H]3C#N)nn(C3CCOCC3)c21 (relative stereo) ; measured IC50: 1000 to 3000 nM

Lookup result for CCN1C(=O)[C@@H](NC(=O)c2cccc(C(F)(F)F)c2)[C@@H](c2ccc(F)cc2)c2c([C@H](CCO)NC#N)nn(-c3ccccc3)c21 (mixture of isomers) ; measured IC50: 200 to 1000 nM

More entries:
Lookup result for CCN1C(=O)[C@@H](NC(=O)c2cccc(C(F)(F)F)c2)[C@@H](C2CC2)c2c(C(=O)N3[C@H](C)CC[C@H]3C#N)nn(C3CCOCC3)c21 ; measured IC50: 1000 to 3000 nM

Lookup result for CCN1C(=O)[C@@H](NC(=O)c2cccc3ncoc23)[C@@H](C2CC2)c2c(C(=O)N3[C@H](C#N)C[C@H]4C[C@H]43)nn(C3CCOCC3)c21 ; measured IC50: 200 to 1000 nM

Lookup result for CCN1C(=O)[C@@H](NC(=O)C2=NN(c3ccccc3)C(=O)C2)[C@@H](C2CC2)c2c(C(=O)N3[C@H](C#N)C[C@H]4C[C@H]43)nn(C3CCOCC3)c21 ; measured IC50: 1000 to 3000 nM

Lookup result for CCN1C(=O)[C@@H](NC(=O)c2cccc(C(F)(F)F)c2)[C@@H](c2ccc(F)cc2)c2c(CN(C)CC#N)nn(-c3ccccc3)c21 ; measured IC50: 1000 to 3000 nM

Lookup result for CCCn1nc(C(=O)N2CCC[C@H]2C#N)c2c1N(CC)C(=O)[C@@H](NC(=O)c1cccc(C(F)(F)F)c1)[C@H]2C1CC1 ; measured IC50: 1000 to 3000 nM

Lookup result for CCN1C(=O)[C@@H](NC(=O)c2cccc(C(F)(F)F)c2)[C@@H](c2ccc(F)cc2)c2c(CCN(C)C#N)nn(-c3ccccc3)c21 (racemic) ; measured IC50: 200 to 1000 nM

Lookup result for C=CC(=O)N[C@H](C)c1nn(-c2ccccc2)c2c1[C@H](c1ccc(F)cc1)[C@@H](NC(=O)c1nccc(C(F)(F)F)n1)C(=O)N2CC ; measured IC50: 1000 to 3000 nM

Lookup result for CCN1C(=O)[C@@H](NC(=O)c2cccc(C(F)(F)F)c2)[C@@H](c2ccc(F)cc2)c2c(C/C=C/C(=O)NC)nn(-c3ccccc3)c21 (racemic) ; measured IC50: 1000 to 3000 nM

Lookup result for CCN1C(=O)[C@H](NC(=O)c2cccc(C(F)(F)F)c2)[C@H](c2ccc(F)cc2)c2c([C@@H](C)NC#N)nn(-c3ccccc3)c21 ; measured IC50: 1000 to 3000 nM

Lookup result for CCN1C(=O)[C@H](NC(=O)c2cccc(C(F)(F)F)c2)[C@@H](c2ccc(F)cc2)c2c(COCC#N)nn(-c3ccccc3)c21 ; measured IC50: 1000 to 3000 nM

Lookup result for CCCn1nc(C(=O)N(CC#N)C2CC2)c2c1N(CC)C(=O)[C@H](NC(=O)c1cccc(C(F)(F)F)c1)[C@@H]2c1ccc(F)cc1 ; measured IC50: 1000 to 3000 nM

Lookup result for CCN1C(=O)[C@@H](NC(=O)c2cccc(C(F)(F)F)c2)[C@@H](c2ccc(F)cc2)c2c(CC/C=C\C(N)=O)nn(-c3ccccc3)c21 (racemic) ; measured IC50: 200 to 1000 nM

Lookup result for C=C(CO)C(=O)NCc1nn(-c2ccccc2)c2c1[C@H](c1ccc(F)cc1)[C@H](NC(=O)c1cccc(C(F)(F)F)c1)C(=O)N2CC (racemic) ; measured IC50: 200 to 1000 nM

Lookup result for CCN1C(=O)[C@@H](NC(=O)c2cccc(C(F)(F)F)c2)[C@@H](c2ccccn2)c2c(C(=O)N3CCC[C@H]3C#N)nn(-c3ccccc3)c21 (mixture of isomers) ; measured IC50: 1000 to 3000 nM

Lookup result for CCN1C(=O)[C@@H](NC(=O)c2cccc(C(F)(F)F)c2)[C@@H](C2CC2)c2c(C(=O)N3CCOC[C@@H]3C#N)nn(C3CCOCC3)c21 ; measured IC50: 200 to 1000 nM

Lookup result for CCN1C(=O)[C@@H](NC(=O)c2cccc(C(F)(F)F)c2)[C@@H](C2CC2)c2c(C(=O)N3CCN(C)C[C@@H]3C#N)nn(C3CCOCC3)c21 (single isomer, unassigned) ; measured IC50: 200 to 1000 nM

The measurements presented in this section are drawn from patent US20250163057A1.
